Test: Timed organ biodistribution of [^64Cu]Cu-DOTATATE by ex vivo gamma counting
Assay type: in vivo, mice
Settings: mouse, abdominal aorta, intravenous, 1.85 MBq, total radioactivity; female C57BL/6 mice, 5 min after injection, median (IQR), N=3-7; read-out: Tissue radioactivity, abdominal aorta
QUANTITY NAME: tissue uptake at 5 min (%ID/g)
Entry rule: numbers only, all in %ID/g.

IN: // returns reported tissue uptake at 5 min for input C[C@@H](O)[C@H](NC(=O)[C@@H]1CSSC[C@H](NC(=O)[C@@H](Cc2ccccc2)NC(=O)CN2CCN(CC(=O)O)CCN(CC(=O)O)CCN(CC(=O)O)CC2)C(=O)N[C@@H](Cc2ccc(O)cc2)C(=O)N[C@H](Cc2c[nH]c3ccccc23)C(=O)N[C@@H](CCCCN)C(=O)N[C@@H]([C@@H](C)O)C(=O)N1)C(=O)O [[^64Cu]Cu-DOTATATE, metal not drawn]
OUT: 3.8

###

Assay: Timed organ biodistribution of [^64Cu]Cu-DOTATATE by ex vivo gamma counting
Type: in vivo, mice
Conditions: mouse, liver, intravenous, 1.85 MBq, total radioactivity; female Apoe^-/- mice 12 weeks on Western Diet, 120 min after injection, median (IQR), N=3-8; read-out: Tissue radioactivity, liver
QUANTITY NAME: tissue uptake at 2 h
Write the quantity with the unit trailing the number.

IN: // tissue uptake at 2 h lookup, key: C[C@@H](O)[C@H](NC(=O)[C@@H]1CSSC[C@H](NC(=O)[C@@H](Cc2ccccc2)NC(=O)CN2CCN(CC(=O)O)CCN(CC(=O)O)CCN(CC(=O)O)CC2)C(=O)N[C@@H](Cc2ccc(O)cc2)C(=O)N[C@H](Cc2c[nH]c3ccccc23)C(=O)N[C@@H](CCCCN)C(=O)N[C@@H]([C@@H](C)O)C(=O)N1)C(=O)O [[^64Cu]Cu-DOTATATE, metal not drawn]
OUT: 6.3 %ID/g

###

Assay: Timed organ biodistribution of [^64Cu]Cu-DOTATATE by ex vivo gamma counting
Type: in vivo, mice
Settings: mouse, stomach, intravenous, 1.85 MBq, total radioactivity; female C57BL/6 mice, 120 min after injection, median (IQR), N=3-7; read-out: Tissue radioactivity, stomach
QUANTITY NAME: tissue uptake at 2 h (%ID/g)
Give the quantity in %ID/g, number only.

IN: Returns the measured tissue uptake at 2 h for the input molecule. Input: C[C@@H](O)[C@H](NC(=O)[C@@H]1CSSC[C@H](NC(=O)[C@@H](Cc2ccccc2)NC(=O)CN2CCN(CC(=O)O)CCN(CC(=O)O)CCN(CC(=O)O)CC2)C(=O)N[C@@H](Cc2ccc(O)cc2)C(=O)N[C@H](Cc2c[nH]c3ccccc23)C(=O)N[C@@H](CCCCN)C(=O)N[C@@H]([C@@H](C)O)C(=O)N1)C(=O)O [[^64Cu]Cu-DOTATATE, metal not drawn]
OUT: 3.2

###

Assay: Timed organ biodistribution of [^64Cu]Cu-DOTATATE by ex vivo gamma counting
Assay type: in vivo, mice
Conditions: mouse, pancreas, intravenous, 1.85 MBq, total radioactivity; female C57BL/6 mice, 5 min after injection, median (IQR), N=3-7; read-out: Tissue radioactivity, pancreas
QUANTITY NAME: tissue uptake at 5 min (%ID/g)
Write down the numeric answer in %ID/g and omit the unit.

IN: Fill in the blank: the reported tissue uptake at 5 min of C[C@@H](O)[C@H](NC(=O)[C@@H]1CSSC[C@H](NC(=O)[C@@H](Cc2ccccc2)NC(=O)CN2CCN(CC(=O)O)CCN(CC(=O)O)CCN(CC(=O)O)CC2)C(=O)N[C@@H](Cc2ccc(O)cc2)C(=O)N[C@H](Cc2c[nH]c3ccccc23)C(=O)N[C@@H](CCCCN)C(=O)N[C@@H]([C@@H](C)O)C(=O)N1)C(=O)O [[^64Cu]Cu-DOTATATE, metal not drawn] is ____.
OUT: 5.3
